biological target: SARS-CoV-2 spike protein receptor binding domain (RBD2) (SARS-CoV-2, UniProt P0DTC2 319-537); assay: SPR sandwich binning, ligand Anti-His
Please respond with reported normalized analyte binding to RBD2 held by the immobilized ligand for every item in the list.
Numbers only.

>>> number("F07 IgG1 (antibody, V domains shown) VH: QVQLVQSGAEVKKPGSSVRVSCKVSGYTFTGYYMHWVRQAPGQGLEWMGIINPSGGSTSYAQKFQGRVTMTRDTSTSTVYMELSSLRSEDTAVYYCARVRVGASDAFDIWGQGTMVTVSS VL: SYVLTQPPSVSVAPGQTARITCGGNNIGSKSVHWYQQKPGQAPVLVVYDDSDRPSGIPERFSGSNSGNTATLIISRVEAGDEADYYCQVWDSSSVHYVFGTGTKLTVL")
1.48

Hello, I would appreciate it if you could give normalized analyte binding to RBD2 held by the immobilized ligand for each entry below.
1. B04 IgG1 (antibody, V domains shown) VH: QVQLVESGAEVKKPGASVKVSCKASGYTFTRYYMHWVRQAPGQGLEWMGIINPSGGTTSYAQKFQGRVTMTRDTSTSTVYMELSSLRSEDTAVYYCARSFGELTSFDYWGQGTLVTVSS VL: SYVLTQPPSVSVAPGKTARITCGGNNIGIRSVHWYQQKPGQAPVLVIYYDSDRPSGIPERFSGSKSGNTATLTISRVEAGDEADYYCQVWDSSSDHPVFGGGTKLTVL
2. S01 IgG1 (antibody, V domains shown, also called 501) VH: QVQLVESGGGLVKPGGSLRLSCAASGFTVGSNYMSWVRQAPGKGLEWVSVIYSGGSTYYADSVKGRFTISRDNSKNTLYLQMNSLRAEDTAVYYCARGSSGAWYFDLWGRGTLVTVSS VL: EIVMTQSPSSLSASVGDSVTITCQASQDISNYLNWYQQKPGKAPKLLIYDASNLETGVPSRFSGGGSGTDFTLTITSLQPEDIATYYCQQYDNFPPTFGPGTKVDIK

1.68
1

Batch lookup, normalized analyte binding to RBD2 held by the immobilized ligand per entry.
1. H05 IgG1 (antibody, V domains shown, also called H5; HO5) VH: QVQLVQSGAEVKKPGSSVKVSCKASGGTFSSYAISWVRQAPGQGLEWMGGIIPIFGTANYAQKFQGRVTITADESTSTAYMELSSLRSEDTAVYYCARSIFGVVIISHADGYYYGMDVWGQGTTVTVSS VL: SYVLTQPPSVSVAPGQTARITCGANNIGRISVHWYQQKPGQAPVLVVYDDSDRPSGIPERFSGSNFGNTATLTISRVEAGDEADYYCQVWDSYSDHVIFGGGTKLTVL
2. H01 IgG1 (antibody, V domains shown, also called H1) VH: QVTLKESGPVLVKPTETLTLTCTVSGFSLSNARMGVSWIRQPPGKALEWLAHIFSNGEKSYSTSLKSRLTISKDTSKSQVVLTMTNMDPVDTATYYCARTLDYYDSSGYLVGGAFDIWGQGTMVTVSS VL: QPGLTQPPSVSLAPGQTARITCGGNNIGSKSVHWYQQKPGQAPVLVVYDDSDRPSGIPERFSGSNAGNTATLTISRVEAGDEADYYCQVWDSRSDQYVFGTRTKLTVL
3. E01 IgG1 (antibody, V domains shown, also called E1) VH: QVQLQQWGAGLLKPSETLSLKCAVYGGSFSGYYWGWIRQSTGKGLEWIGEINRSGSTNYNPSLKSRVTISVDTSKNQFSLKLSSVTAADTAVYYCARGGARYYYGSGSYRSTPRPYYFDYWGQGTLVTVSS VL: SYELTQPPSVSVAPGETARITCGGDNIGRRHVHWYQQKPGQAPVLVIYDDSDRPSGIPDRFSGSNSGNTATLTIGRVEAGDEADYYCQVWGSSNDPHVFGTGTKLTVL
4. E08 IgG1 (antibody, V domains shown) VH: QVQLVQSGAEVKKPGSSVKVSCKASGGTFSSYAISWVRQAPGQGLEWMGGIIPIFGTANYAQKFQGRVTITADESTSTAYMELSSLRSEDTAVYYCARASGRWLQFWHYYGMDVWGQGTTVTVSS VL: SYVLTQPPSVSVAPGKTARITCGGNNIGWKSVHWYQQKPGQAPVLVVYDDSDRPSGIPERFSGSNSGNTATLTISRVEAGDEADYYCQVWDSSSDLVVFGGGTKLTVL
5. G07 IgG1 (antibody, V domains shown) VH: QVQLVQSGAEVKKPGESLKISCKGSGYSFTSYWIGWVRQMPGKGLEWMGIIYPGDSDIRYSPSFQGQVTISADKSFSSAYLQWSSLKASDTAMYYCARLGATGAFDIWGQGTTVTVSS VL: QSVLIQPPSASGTPGQRVTISCSGSNSNFGSNSVSWYQQRPGTAPKLLIEGNNQRPSGVPERFSGSKSGTSASLAISGLQSEDEAEYSCASWDDSLNAFVFGPGTKLTVL

[1.35, 1.75, 2, 1.81, 0.92]
